Where these numbers come from: paper PMC10539501

- measuredOn: SSTR5 (Homo sapiens, UniProt P35346)
- Sequence (P35346 whole entry): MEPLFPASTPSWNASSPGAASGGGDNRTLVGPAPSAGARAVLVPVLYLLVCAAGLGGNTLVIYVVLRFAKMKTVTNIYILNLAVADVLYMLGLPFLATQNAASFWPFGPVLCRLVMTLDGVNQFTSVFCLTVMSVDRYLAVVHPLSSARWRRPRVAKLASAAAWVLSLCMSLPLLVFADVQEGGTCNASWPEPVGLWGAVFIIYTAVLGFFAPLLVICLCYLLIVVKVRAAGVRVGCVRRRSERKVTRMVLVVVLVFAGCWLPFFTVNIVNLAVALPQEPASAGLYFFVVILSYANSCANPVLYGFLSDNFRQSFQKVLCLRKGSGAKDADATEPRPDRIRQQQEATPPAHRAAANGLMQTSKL
- experimentalProtocol: GloSensor assay, inhibition of forskolin-induced cAMP production
Starred links: 1 amine or outer side, 2 acyl side, 3 side chain; linkers in the order of their positions; H or OH if unused. Non-standard residues stand in square brackets, D forms with d. Residues, ends and D or L forms follow the SMILES beside them. X7 = C[C@@H](O)[C@H](NC(=S)[C@H](CCCCN)N[*:1])C(=O)[*:2]; X8 = O=C([C@H](Cc1ccccc1)NC(=S)[C@@H]1CCCN1[*:1])[*:2]
Entries and their IC50
Numbers only; they are read as nM.

INSERT INTO assay_data (compound, measuredon, testvalue) VALUES
  ('C[C@@H](O)[C@@H]1NC(=S)[C@H](CCCCN)NC(=O)[C@@H](Cc2c[nH]c3ccccc23)NC(=O)[C@H](Cc2ccccc2)NC(=O)[C@@H]2CCCN2C(=O)[C@H](Cc2ccccc2)NC1=O [13b] (cyclo(FPF[dW][X7]))', 'SSTR5 (Homo sapiens, UniProt P35346)', 228),
  ('C[C@@H](O)[C@@H]1NC(=O)[C@H](CCCCN)NC(=O)[C@@H](Cc2c[nH]c3ccccc23)NC(=O)[C@H](Cc2ccccc2)NC(=S)[C@@H]2CCCN2C(=O)[C@H](Cc2ccccc2)NC1=O [13e] (cyclo(F[X8][dW]KT))', 'SSTR5 (Homo sapiens, UniProt P35346)', 232);

Task: Need IC50, item C[C@@H](O)[C@@H]1NC(=O)[C@H](CCCCN)NC(=O)[C@@H](Cc2c[nH]c3ccccc23)NC(=O)[C@H](Cc2ccccc2)NC(=O)[C@@H]2CCCN2C(=O)[C@H](Cc2ccccc2)NC1=O [compound 13, cyclo(-D-Trp^1-Lys-Thr-Phe-Pro-Phe^6-)] (cyclo(PF[dW]KTF))
Output: 105

---

Quick reference: Pe set3 of the listed items.
- experimentalProtocol: PAMPA passive permeability;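 also: passive permeability across an artificial membrane in 96-well pre-coated PAMPA plates, which lack transporters and efflux systems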
- Type: in vitro ADME
Starred links: 1 amine or outer side, 2 acyl side, 3 side chain; linkers in the order of their positions; H or OH if unused. Non-standard residues stand in square brackets, D forms with d. Residues, ends and D or L forms follow the SMILES beside them. X1 = CC(C)C[C@H](NC(=S)[C@H](Cc1ccc(O)cc1)N[*:1])C(=O)[*:2]; X6 = O=C([C@H](Cc1ccc(O)cc1)NC(=S)[C@H]1CCCN1[*:1])[*:2]; X2 = CC(C)C[C@H](NC(=S)[C@@H](CC(C)C)N[*:1])C(=O)[*:2]; X3 = CC(C)C[C@H](N[*:1])C(=S)N[C@H](CC(C)C)C(=O)[*:2]; X5 = CC(C)C[C@H](NC(=S)[C@H](CC(C)C)N[*:1])C(=O)[*:2]; X4 = CC(C)C[C@H](N[*:1])C(=S)N1CCC[C@@H]1C(=O)[*:2]

Here are 5 molecules together with their reported answers.
INSERT INTO assay_data (molecule, testvalue) VALUES
  ('CC(C)C[C@@H]1NC(=O)[C@@H](CC(C)C)NC(=S)[C@H](CC(C)C)NC(=O)[C@H](Cc2ccc(O)cc2)NC(=O)[C@H]2CCCN2C(=O)[C@H](CC(C)C)NC1=O [10f] (cyclo(LL[dP]Y[X3]))', '4.7e-06 cm/s'),
  ('CC(C)C[C@@H]1NC(=O)[C@H](Cc2ccc(O)cc2)NC(=O)[C@H]2CCCN2C(=S)[C@H](CC(C)C)NC(=O)[C@H](CC(C)C)NC(=O)[C@@H](CC(C)C)NC1=O [10c] (cyclo(L[dL]L[X4]Y))', '2.79e-06 cm/s'),
  ('CC(C)C[C@@H]1NC(=O)[C@H](Cc2ccc(O)cc2)NC(=O)[C@H]2CCCN2C(=O)[C@H](CC(C)C)NC(=O)[C@H](CC(C)C)NC(=S)[C@@H](CC(C)C)NC1=O [10a] (cyclo(L[dP]YL[X2]))', '1.181e-05 cm/s'),
  ('CC(C)C[C@@H]1NC(=O)[C@H](Cc2ccc(O)cc2)NC(=S)[C@H]2CCCN2C(=O)[C@H](CC(C)C)NC(=O)[C@H](CC(C)C)NC(=O)[C@@H](CC(C)C)NC1=O [10d] (cyclo(LL[X6]L[dL]))', '4.7e-06 cm/s'),
  ('CC(C)C[C@@H]1NC(=O)[C@@H](CC(C)C)NC(=O)[C@H](CC(C)C)NC(=S)[C@H](Cc2ccc(O)cc2)NC(=O)[C@H]2CCCN2C(=O)[C@H](CC(C)C)NC1=O [10e] (cyclo(LL[dP][X1][dL]))', '8.29e-06 cm/s');

Next item in the queue.
Task: Looking for the measured Pe set3 of CC(C)C[C@@H]1NC(=O)[C@H](Cc2ccc(O)cc2)NC(=O)[C@H]2CCCN2C(=O)[C@H](CC(C)C)NC(=S)[C@H](CC(C)C)NC(=O)[C@@H](CC(C)C)NC1=O [10b] (cyclo(L[dL][X5][dP]Y)) , can you help?
Output: 5.14e-06 cm/s
